target: Ileal sodium/bile acid cotransporter (Homo sapiens, UniProt Q12908); experiment: TP_TRANSPORTER: inhibition of Taurocholate uptake in ASBT-expressing COS cells; type: functional, cell-based; conditions: cos
attribute measured: Ki (µM)
Unit µM implied. Number only.

Query: Bench note: what Ki did C[C@H](CCC(=O)O)[C@H]1CC[C@H]2[C@@H]3CC[C@@H]4C[C@H](O)CC[C@]4(C)[C@H]3C[C@H](O)[C@]12C show?
Reply: 6.3

* * *

Biological target: Ileal sodium/bile acid cotransporter (Homo sapiens)
Sequence (Q12908 whole entry): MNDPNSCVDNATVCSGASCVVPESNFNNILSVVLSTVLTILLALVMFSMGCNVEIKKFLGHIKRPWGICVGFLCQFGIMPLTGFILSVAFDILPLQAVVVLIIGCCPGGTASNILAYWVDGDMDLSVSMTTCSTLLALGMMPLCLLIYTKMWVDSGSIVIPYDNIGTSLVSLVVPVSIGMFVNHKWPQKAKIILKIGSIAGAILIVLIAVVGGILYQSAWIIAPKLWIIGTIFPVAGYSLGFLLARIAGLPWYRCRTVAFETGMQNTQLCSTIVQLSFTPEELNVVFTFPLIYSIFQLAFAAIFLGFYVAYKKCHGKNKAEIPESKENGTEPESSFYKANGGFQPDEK
Assay: TP_TRANSPORTER: inhibition of Taurocholate uptake in ASBT-expressing COS cells
Type: functional, cell-based
attribute measured: Ki (µM)
Unit µM implied. Number only.

[[record]]
chemical_string = "C[C@H](CCC(=O)NCCS(=O)(=O)O)[C@H]1CC[C@H]2[C@@H]3CC[C@@H]4C[C@H](O)CC[C@]4(C)[C@H]3C[C@H](O)[C@]12C"
attribute_measured = "Ki"
unit_text = "µM"
reported_measurement = 17.2

[[record]]
chemical_string = "C[C@H](CCC(=O)NCCS(=O)(=O)O)[C@H]1CC[C@H]2[C@@H]3[C@@H](O)C[C@@H]4C[C@H](O)CC[C@]4(C)[C@H]3CC[C@]12C"
attribute_measured = "Ki"
unit_text = "µM"
reported_measurement = 28

[[record]]
chemical_string = "C[C@H](CCC(=O)O)[C@H]1CC[C@H]2[C@@H]3[C@@H](O)C[C@@H]4C[C@H](O)CC[C@]4(C)[C@H]3CC[C@]12C"
attribute_measured = "Ki"
unit_text = "µM"
reported_measurement = 75


Note: attention shifts to another entry.
Query: Bench note: what Ki did C[C@H](CCC(=O)O)[C@H]1CC[C@H]2[C@@H]3[C@H](O)C[C@@H]4C[C@H](O)CC[C@]4(C)[C@H]3CC[C@]12C show?
Reply: 3.3

* * *

biological target: Ileal sodium/bile acid cotransporter (Homo sapiens, UniProt Q12908); test: TP_TRANSPORTER: inhibition of Taurocholate uptake in ASBT-expressing COS cells; assay type: functional, cell-based
Ki values for the compounds below.
Answer by giving the amount and then stating its unit.

[[record]]
compound = "C[C@H](CCC(=O)NCCS(=O)(=O)O)[C@H]1CC[C@H]2[C@@H]3[C@H](O)C[C@@H]4C[C@H](O)CC[C@]4(C)[C@H]3CC[C@]12C [TAUROCHENODEOXYCHOLATE]"
reported_measurement = "6.1 µM"

[[record]]
compound = "O=C1OC(c2ccc(O)c(S(=O)(=O)O)c2)(c2ccc(O)c(S(=O)(=O)O)c2)c2c(Br)c(Br)c(Br)c(Br)c21 [SULFOBROMOPHTHALEIN SODIUM]"
reported_measurement = "144 µM"


Query: Bench note: what Ki did C[C@H](CCC(=O)O)[C@H]1CC[C@H]2[C@@H]3CC[C@@H]4C[C@H](O)CC[C@]4(C)[C@H]3C[C@H](O)[C@]12C show?
Reply: 6.3 µM
